Cited source: paper PMC12586182

assaySystem: NuaK2 (Homo sapiens, UniProt Q9H093)
Construct: purchased Carna Biosciences
Sequence (Q9H093 whole entry): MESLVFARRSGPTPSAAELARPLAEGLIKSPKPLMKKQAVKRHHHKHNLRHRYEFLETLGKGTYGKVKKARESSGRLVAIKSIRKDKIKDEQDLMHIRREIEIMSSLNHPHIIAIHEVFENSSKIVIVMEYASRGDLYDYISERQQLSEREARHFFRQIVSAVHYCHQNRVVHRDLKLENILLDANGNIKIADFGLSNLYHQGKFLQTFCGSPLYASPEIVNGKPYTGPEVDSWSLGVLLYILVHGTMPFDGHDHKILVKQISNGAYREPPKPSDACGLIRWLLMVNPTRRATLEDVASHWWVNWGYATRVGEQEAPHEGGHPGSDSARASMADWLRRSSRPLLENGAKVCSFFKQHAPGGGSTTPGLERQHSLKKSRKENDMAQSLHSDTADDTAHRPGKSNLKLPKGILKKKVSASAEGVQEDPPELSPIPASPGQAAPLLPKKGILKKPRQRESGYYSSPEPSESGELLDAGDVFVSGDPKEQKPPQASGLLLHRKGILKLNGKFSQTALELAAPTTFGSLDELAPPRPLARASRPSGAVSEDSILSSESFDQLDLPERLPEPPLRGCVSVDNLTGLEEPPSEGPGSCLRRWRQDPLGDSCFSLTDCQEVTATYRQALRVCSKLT
experimentSummary: Kinase panel profiling at 1 µmol/L (mobility shift assay, Carna)
Format: biochemical
details: 1 µmol/L of BTK inhibitor
Entries and their Percentage inhibition of kinase enzyme activity values follow.
valueType: Percentage inhibition of kinase enzyme activity (%)

- structureString: "COc1ccc(F)cc1C(=O)NCc1ccc(-c2nn([C@@H](C)C(F)(F)F)c(N)c2C(N)=O)cc1"
  reported: -0.23
- structureString: "O=C(c1ccc(Oc2ccccc2)cc1Cl)c1c[nH]c2ncnc(N[C@@H]3CC[C@@H](CO)OC3)c12"
  reported: 24.70
- structureString: "C=CC(=O)N1CCC[C@@H](n2nc(-c3ccc(Oc4ccccc4)cc3)c3c(N)ncnc32)C1"
  reported: 6.37
- structureString: "CC#CC(=O)N1CCC[C@H]1c1nc(-c2ccc(C(=O)Nc3ccccn3)cc2)c2c(N)nccn12"
  reported: 3.11
